measurement_notes: chemical genetic growth profiling, strain panel (AID 1159580);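 further: tested at 20 µM; growth read once vehicle control cultures reached saturation at 30 °C; 1 = growth at the plate median or of vehicle wells; lower values mean less growth of the strain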
run_parameters: S. cerevisiae deletion strains, growth OD, locus YJL092W, strain hpr5, stronger effect = lower value
The whole screen tested about 5,500 compounds, of which about 2,000 (36%) were called active. About 18% were inconclusive and are not listed. Some of the results follow.
value_type: normalized growth

# compound, endpoint_value
rows = [
    ("CC(C)(O)[C@@H]1[C@H]2OC(=O)[C@@H]1[C@]1(O)C[C@H]3O[C@]34C(=O)O[C@H]2[C@]14C", 1),
    ("COP(=O)(OC)OC=C(Cl)Cl", 1),
    ("COc1ccc2c3c1O[C@H]1C[C@@H](O)C=C[C@@]31CCN(C)C2", 1),
    ("COc1cc(NS(=O)(=O)c2ccc(N)cc2)nc(OC)n1", 0.982),
    ("Cc1[nH]c(C)c(Cl)c(=O)c1Cl", 0.996),
    ("C=C1C2CC[C@H]3[C@]4(C)C[C@H](OC5OC(CO)C(OS(=O)(=O)O)C(OS(=O)(=O)O)C5OC(=O)CC(C)C)C[C@@H](C(=O)O)[C@H]4CC[C@]3(C2)[C@H]1O (some centres undefined)", 1.01),
    ("C[C@H]1CC2C([C@@H](O)C[C@@]3(C)C2CC[C@]3(O)C(=O)CO)[C@@]2(C)C=CC(=O)C=C12 (some centres undefined)", 0.989),
    ("COC1=CC(=O)C[C@@H](C)[C@]12Oc1c(Cl)c(OC)cc(OC)c1C2=O", 0.987),
    ("COc1cc(NC(C)CCCN)c2ncccc2c1 (centres undefined)", 0.995),
]
